# system_name: baculovirus-expressed ALK (Homo sapiens)
# Construct: host or cells: baculovirus expression system
# Sequence (Q9UM73 19-1620): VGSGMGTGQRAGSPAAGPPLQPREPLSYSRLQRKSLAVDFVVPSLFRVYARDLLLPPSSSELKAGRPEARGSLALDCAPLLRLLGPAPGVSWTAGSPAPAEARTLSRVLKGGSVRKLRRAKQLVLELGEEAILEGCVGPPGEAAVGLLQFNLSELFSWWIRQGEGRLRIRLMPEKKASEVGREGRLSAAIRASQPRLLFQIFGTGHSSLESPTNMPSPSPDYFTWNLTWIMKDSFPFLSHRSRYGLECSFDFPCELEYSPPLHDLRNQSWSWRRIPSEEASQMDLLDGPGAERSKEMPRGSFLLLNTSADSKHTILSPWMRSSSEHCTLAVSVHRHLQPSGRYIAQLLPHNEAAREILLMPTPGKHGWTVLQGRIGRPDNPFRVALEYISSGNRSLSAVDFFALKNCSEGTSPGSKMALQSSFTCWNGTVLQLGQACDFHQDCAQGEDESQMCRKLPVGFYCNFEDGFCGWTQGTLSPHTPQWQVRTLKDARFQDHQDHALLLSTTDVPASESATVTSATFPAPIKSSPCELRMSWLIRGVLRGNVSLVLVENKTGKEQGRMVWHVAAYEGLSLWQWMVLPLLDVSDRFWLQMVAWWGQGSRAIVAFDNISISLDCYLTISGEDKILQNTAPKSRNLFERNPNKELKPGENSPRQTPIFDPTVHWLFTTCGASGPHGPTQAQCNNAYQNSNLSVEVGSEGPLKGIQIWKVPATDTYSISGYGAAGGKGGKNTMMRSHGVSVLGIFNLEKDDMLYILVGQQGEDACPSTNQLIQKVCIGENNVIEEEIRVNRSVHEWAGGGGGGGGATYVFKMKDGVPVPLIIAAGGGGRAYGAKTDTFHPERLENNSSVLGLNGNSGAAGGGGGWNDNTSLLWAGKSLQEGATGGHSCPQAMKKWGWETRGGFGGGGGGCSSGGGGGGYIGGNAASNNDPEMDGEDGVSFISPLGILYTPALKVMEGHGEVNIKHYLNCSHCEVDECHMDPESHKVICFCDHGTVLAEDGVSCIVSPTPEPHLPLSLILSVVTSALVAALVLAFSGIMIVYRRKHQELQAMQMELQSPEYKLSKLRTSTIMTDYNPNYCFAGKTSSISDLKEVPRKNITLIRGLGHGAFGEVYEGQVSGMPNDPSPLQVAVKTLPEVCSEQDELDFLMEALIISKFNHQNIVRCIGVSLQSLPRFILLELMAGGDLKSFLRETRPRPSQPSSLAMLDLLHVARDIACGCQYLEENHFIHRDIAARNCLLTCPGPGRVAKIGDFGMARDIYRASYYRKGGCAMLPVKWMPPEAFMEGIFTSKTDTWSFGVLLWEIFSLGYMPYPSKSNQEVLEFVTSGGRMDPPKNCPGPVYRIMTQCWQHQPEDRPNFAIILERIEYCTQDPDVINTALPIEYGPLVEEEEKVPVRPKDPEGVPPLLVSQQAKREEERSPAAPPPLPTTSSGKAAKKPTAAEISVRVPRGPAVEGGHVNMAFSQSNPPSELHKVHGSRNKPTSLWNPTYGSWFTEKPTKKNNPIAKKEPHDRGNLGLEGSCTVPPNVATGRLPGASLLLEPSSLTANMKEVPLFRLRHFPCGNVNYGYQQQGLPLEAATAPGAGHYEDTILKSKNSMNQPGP
# protocol: ALK Kinase Assay (ELISA-type, time-resolved fluorescence)
# Assay type: biochemical
# details: ALK kinase inhibition, 1 μM ATP; read-out: ALK Activity
# Experimental: Briefly, each 96-well plate was coated with 100 μL/well of 10 μg/mL substrate (phospholipase C-γ) in Tris-buffered saline (TBS). […] The reaction was initiated by adding enzyme (30 ng/ml ALK) and was allowed to proceed at 37° C. for 15 minutes. Detection of the phosphorylated product was performed by adding 100 μl/well of Eu-N1 labeled PT66 antibody (Perkin Elmer # AD0041). Data analysis was performed using ActivityBase (IDBS, Guilford, UK). […]
pIC50: −log10 of the molar value.
Examples of compounds with documented pIC50 follow.

See these solved cases before continuing.
>>> print(df.to_string())
                                   compound  quantity    data_value
0  CN1C(=O)OCCc2cc(Nc3ncc(Cl)c(Nc4c(F)cccc4OCCO)n3)ccc21 [Example 1732]     pIC50        > 7.00
1  CNC(=O)c1cccc(C)c1Nc1nc(Nc2ccc3c(c2)CCC(=O)NC3(C)C)ncc1Cl [Example 1830]     pIC50  5.00 to 6.00
2  Cc1cccc(C(N)=O)c1Nc1nc(Nc2ccc3c(c2)N(C(C)C)C(=O)CCC3)ncc1Cl [Example 1475]     pIC50  6.00 to 7.00
3  COc1cc2c(cc1Nc1ncc(Cl)c(Nc3cccc(OCC#N)c3)n1)CCOC(=O)N2C [Example 1510]     pIC50        > 7.00
4  CNC(=O)c1cc(C)cc(C)c1Nc1nc(Nc2ccc3c(c2)CCNC(=O)C3)ncc1Cl [Example 1814]     pIC50        > 7.00

[in] Which pIC50 is reported with baculovirus-expressed ALK (Homo sapiens) for this entry: C#CCNC(=O)c1cccc(F)c1Nc1nc(Nc2ccc3c(c2)N(CC)C(=O)C(NC(=O)COC)CC3)ncc1Cl (stereo not shown) [Example 1499] ?
[out] 6.00 to 7.00

[in] Okay, and CNC(=O)c1cccc(Cl)c1Nc1nc(Nc2ccc3c(c2)CCOC(=O)N3C)ncc1Cl [Example 1743] ?
[out] 5.00 to 6.00

[in] Okay, and COc1cc2c(cc1Nc1ncc(Cl)c(N[C@H]3[C@@H](C(N)=O)[C@@H]4C=C[C@H]3C4)n1)CCN(C[C@H](O)C(F)(F)F)CC2 [Example 1673] ?
[out] > 7.00

[in] Okay, and CNC(=O)c1cccc(F)c1Nc1nc(Nc2ccc3c(c2)N(C)CCCO3)ncc1Cl [Example 1707] ?
[out] > 7.00

[in] Okay, and C#CCNC(=O)c1sccc1Nc1nc(Nc2ccc3c(c2)NC(=O)CCC3(C)C)ncc1Cl [Example 1623] ?
[out] 6.00 to 7.00

[in] Okay, and CNC(=O)c1cccc(F)c1Nc1nc(Nc2ccc3c(c2)CCCC(=O)N3CCOC)ncc1Br [Example 1472] ?
[out] > 7.00

[in] Okay, and C#CCNC(=O)c1cc(F)cc(F)c1Nc1nc(Nc2ccc3c(c2)CCN(CCOC)CC3)ncc1Cl [Example 1728] ?
[out] 6.00 to 7.00

[in] Okay, and CNC(=O)c1ccccc1Nc1nc(Nc2cc3c(cc2OC)CCOC(=O)N3C)ncc1Cl [Example 1511] ?
[out] > 7.00

[in] Okay, and CCN1C(=O)CCC(C)(C)c2ccc(Nc3ncc(Cl)c(Nc4ccccc4OCC#N)n3)cc21 [Example 1580] ?
[out] > 7.00

[in] Okay, and CCN1C(=O)OCCc2cc(Nc3ncc(Cl)c(Nc4ccccc4C(=O)NC)n3)ccc21 [Example 1745] ?
[out] > 7.00

[in] Okay, and CNC(=O)c1ccccc1Nc1nc(Nc2ccc3c(c2)CCC(=O)NC3(C)C)ncc1Cl [Example 1827] ?
[out] > 7.00
